Ref: patent US9096565B2

pIC50 overview
# subject_of_test: one or more of HDAC-4, HDAC-5, HDAC-6, HDAC-7, HDAC-8, HDAC-9, HDAC-10 and HDAC-11
# procedure_summary: Inhibition of histone deacetylase enzymatic activity (summary statement over isoforms)
# protocol_conditions: Table 3, selected examples; HDAC isoform not given
pIC50: −log10 of the molar value.

1. O=C(NO)C(c1ccccc1)c1ccc(-c2ccc(Oc3ccccc3)cc2)cc1 (stereo not shown)    > 6.00
2. COc1ccc(N2CCN(c3ccc(C(C(=O)NO)c4ccccc4)cc3)CC2)cc1 (stereo not shown)    > 6.00
3. O=C(NO)C(c1ccccc1)c1cccc(OCCN2CCCC2)c1 (stereo not shown)    > 6.00
4. Cc1ccc(OC(C(=O)NO)c2ccccc2)c(Cl)c1 (stereo not shown)    4.82 to 6.00
5. O=C(NO)C(c1ccccc1)c1ccc(-n2ccc3ccccc32)cc1 (stereo not shown)    > 6.00
6. CC(=O)N1CCN(c2ccc(C(C(=O)NO)c3ccccc3)cc2)CC1 (stereo not shown)    > 6.00
7. O=C(Nc1cccc(C(C(=O)NO)c2ccccc2)c1)C1CCCCC1 (stereo not shown)    4.82 to 6.00
8. CN1CCC(Oc2ccc(C(C(=O)NO)c3ccccc3)cc2)CC1 (stereo not shown)    > 6.00

Recorded pIC50 for CC(C)Oc1ccc(C(C(=O)NO)c2ccccc2)cc1 (stereo not shown) , please?
> 6.00

Now try O=C(NO)C(c1ccccc1)c1cccc(OCc2cccc(OC(F)(F)F)c2)c1 (stereo not shown) .
4.82 to 6.00

Now try O=C(NO)C(Sc1nccc(-c2ccc(Cl)cc2)n1)c1ccccc1 (stereo not shown) .
> 6.00

Now try O=C(NO)C(c1ccccc1)c1ccc(NS(=O)(=O)c2cccs2)cc1 (stereo not shown) .
> 6.00

Now try O=C(NO)C(c1ccccc1)N1CCC(c2noc3ccc(F)cc23)CC1 (stereo not shown) .
> 6.00

Now try C#CCOc1ccc(C(C(=O)NO)c2ccccc2)cc1 (stereo not shown) .
> 6.00

Now try CC(Oc1cccc(C(C(=O)NO)c2ccccc2)c1)c1ccccc1 (stereo not shown) .
4.82 to 6.00

Now try CC(C)N1CCN(c2ccc(C(C(=O)NO)c3ccccc3)cc2)CC1 (stereo not shown) .
> 6.00
